- target: T1, HSV-1 Processivity Factor (UL42) (HSV-1 (strain KOS), UniProt P10226 1-488)
- T1 sequence: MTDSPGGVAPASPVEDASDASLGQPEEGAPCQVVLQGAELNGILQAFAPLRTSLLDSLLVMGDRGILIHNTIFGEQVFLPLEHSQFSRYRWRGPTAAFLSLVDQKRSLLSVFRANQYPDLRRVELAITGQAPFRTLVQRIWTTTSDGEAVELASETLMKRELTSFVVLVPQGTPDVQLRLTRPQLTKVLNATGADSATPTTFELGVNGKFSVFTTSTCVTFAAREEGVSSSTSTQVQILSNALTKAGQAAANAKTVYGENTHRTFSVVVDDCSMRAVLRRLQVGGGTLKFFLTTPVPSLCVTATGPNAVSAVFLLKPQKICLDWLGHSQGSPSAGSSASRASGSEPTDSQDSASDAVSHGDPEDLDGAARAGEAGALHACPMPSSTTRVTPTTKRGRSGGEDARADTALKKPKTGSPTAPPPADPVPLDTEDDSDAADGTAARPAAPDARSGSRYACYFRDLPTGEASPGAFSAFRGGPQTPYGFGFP
- assay: cell-based or functional assay
Positions of bridges follow the written chain, without caps; N, C: chain ends. Non-standard residues stand in square brackets, D forms with d. No end group written: not given here. S5 = C=CCCC[C@](C)(N)C(=O)O
Provide the reported IC50, µM (HSV1 UL30+UL42); HSV-1 DNA synthesis inhibition of each item.
Answers are plain numbers, in µM.

Previously resolved entries follow.
>>> print(df.to_string())
                                     binder  value_measured
0  Ac-AE[S5]TRR[S5]LHRAFDTLA (staple 3-7) [S-pep3]            12.7
1  Ac-RRTRR[S5]LHR[S5]FDTLA (staple 6-10) [S-pep7D]               2

Could you now look at the following binder, please?
Request the reported IC50, µM (HSV1 UL30+UL42); HSV-1 DNA synthesis inhibition associated with Ac-ETRRMLH[S5]AFD[S5]LA (staple 8-12) [S-pep8]
20.7

Values were extracted from patent US20230235301A1.
